- target_or_system: Interstitial collagenase (Homo sapiens, UniProt P03956)
- Sequence (P03956 whole entry): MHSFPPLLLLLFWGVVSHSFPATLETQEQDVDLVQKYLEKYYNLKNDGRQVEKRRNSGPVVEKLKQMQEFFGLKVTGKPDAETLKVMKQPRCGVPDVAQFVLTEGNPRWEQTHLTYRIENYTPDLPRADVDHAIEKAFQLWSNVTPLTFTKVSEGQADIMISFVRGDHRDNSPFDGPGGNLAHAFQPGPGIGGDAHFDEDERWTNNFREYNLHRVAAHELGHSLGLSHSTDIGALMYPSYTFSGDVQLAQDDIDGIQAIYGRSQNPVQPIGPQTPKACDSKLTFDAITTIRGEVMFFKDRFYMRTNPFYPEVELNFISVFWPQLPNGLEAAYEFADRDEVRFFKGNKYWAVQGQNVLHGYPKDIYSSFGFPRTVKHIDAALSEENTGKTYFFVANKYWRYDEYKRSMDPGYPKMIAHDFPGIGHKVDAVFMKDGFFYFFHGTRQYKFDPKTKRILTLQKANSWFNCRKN
property: IC50 (µM)
Use µM as the unit, but write only the number.

# compound, unit_string, IC50
records = [
    ("O=C(c1ccccc1)c1ccc(S(=O)(=O)CC(CCCc2ccccc2)C(=O)O)cc1 (configuration not stated)", "µM", 20),
]

Here's the next entry for you.
# query: IC50 of entry Cl.O=C(c1ccncc1)c1ccc(S(=O)(=O)CC(CCCc2ccccc2)C(=O)NO)cc1 (configuration not stated)
10
